Biological target: Macrophage migration inhibitory factor (Homo sapiens)
Sequence (P14174 whole entry): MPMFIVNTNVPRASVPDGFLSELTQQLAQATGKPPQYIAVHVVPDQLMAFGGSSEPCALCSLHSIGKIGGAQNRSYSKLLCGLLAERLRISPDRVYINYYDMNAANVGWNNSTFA
Assay: Inhibition of C-terminal His-tagged recombinant human MIF expressed in Escherichia coli BL21 (DE3) using 4-HPP as substrate preincubated for 10 mins followed by substrate addition by UV absorption spectrum analysis
Assay metric: Ki (nM)

// solved cases for Ki follow
Sample smiles | Observed value
COc1ccc(N2Cc3ccc(O)cc3OC2=O)cc1OC | 100
Cc1ccc(-c2cc3ccc(O)cc3oc2=O)cc1 | 460
O=c1oc2cc(O)ccc2cc1-c1ccc(Br)cc1 | 310
O=c1oc2cc(O)ccc2cc1-c1ccc(I)cc1 | 480
O=c1oc2cc(O)ccc2cc1-c1ccccc1 | 1170
CCOC(=O)c1cc2ccc(O)cc2oc1=O | 12400
COc1ccc(C(=O)N/N=C/c2ccc(O)c(F)c2)cc1 | 8000
O=c1oc2cc(O)ccc2cc1-c1ccccc1Cl | 12700
O=c1oc2cc(O)ccc2cc1-c1cccc(Cl)c1 | 1290
O=c1oc2cc(O)ccc2cc1-c1ccc(F)cc1 | 1690

[1] COc1cccc(-c2cc3ccc(O)cc3oc2=O)c1
[2] Oc1ccc(-n2cc(-c3cc4ccccc4cn3)nn2)cc1
[3] COc1ccccc1-c1cc2ccc(O)cc2oc1=O
hey, can you rank those molecules up there by Ki? biggest number first please List the labels in the requested order.
3, 1, 2

[A] O=c1oc2cc(O)ccc2cc1-c1ccc(Cl)cc1
[B] O=c1oc2cc(O)ccc2cc1-c1ccc2ccccc2c1
Please indicate which entry, A or B , has the lower recorded Ki value. Return value: the label identifying the chosen record.
A
(A: 610 nM, B: 1460 nM)

###

Molecular target: Macrophage migration inhibitory factor (Homo sapiens, UniProt P14174)
Sequence (P14174 whole entry): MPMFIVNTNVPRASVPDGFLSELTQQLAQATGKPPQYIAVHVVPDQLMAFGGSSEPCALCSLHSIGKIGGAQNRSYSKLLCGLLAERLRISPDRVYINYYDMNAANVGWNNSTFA
Experiment: Binding affinity to C-terminal His-tagged recombinant human MIF expressed in Escherichia coli BL21 (DE3) at 200 nM by fluorescence assay
Assay metric: Kd (nM)
Enter your answer as a number in nM; do not include the unit.

Field request: Kd | item: O=C(O)c1ccc(-c2ccc(-c3cc4ccc(O)cc4oc3=O)cc2)cc1
16

###

Biological target: Macrophage migration inhibitory factor (Homo sapiens)
Sequence (P14174 whole entry): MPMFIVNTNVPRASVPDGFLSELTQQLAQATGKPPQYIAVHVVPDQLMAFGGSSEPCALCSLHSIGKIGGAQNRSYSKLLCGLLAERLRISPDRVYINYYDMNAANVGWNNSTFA
Test: Displacement of 4'-(7-Hydroxy-2-oxo-2H-chromen-3-yl)-[1,1'-biphenyl]-4-carboxylic acid from C-terminal His-tagged recombinant human MIF expressed in Escherichia coli BL21 (DE3) preincubated for 10 mins followed by probe addition and measured after 10 mins by fluorescence assay
pKd: −log10 of the molar value.
Assay metric: pKd

Sample smiles | Assay metric | Observed value
COc1ccc(C(=O)N/N=C/c2ccc(O)c(F)c2)cc1 | pKd | 5.25
Oc1ccc(-n2cc(-c3ccccn3)nn2)cc1 | pKd | 5.40

[P] Oc1ccc(-n2cc(-c3cc4ccccc4cn3)nn2)cc1
[Q] O=C(NCc1cn(-c2ccc(O)c(F)c2)nn1)c1cc2ccccc2[nH]1
[R] O=C(NCc1cn(-c2ccc(O)c(F)c2)nn1)c1cc2cc(Cl)ccc2[nH]1
# ascending order, key=pKd List the labels in the requested order.
Q, R, P
